Experiment: Volume of distribution at steady state in Sprague-Dawley rat at 2.5 mg/kg, iv administered in water at pH 4.4
Assay type: ADME, organism-based
Design: dose 2.5 mg/kg, route intravenous
Conditions: in vivo, read-out: Vdss

[
  {
    "compound": "O=C(NO)c1cnc(N2CCN(C(/C=C/c3ccccc3)CO)CC2)nc1 (stereo in doubt; 3a)",
    "unit.of.measure": "L/kg",
    "Vd": 5.8
  },
  {
    "compound": "O=C(NO)c1cnc(N2CCN(S(=O)(=O)c3ccc4ccccc4c3)CC2)nc1",
    "unit.of.measure": "L/kg",
    "Vd": 0.6
  },
  {
    "compound": "O=C(NO)c1cnc(N2CCN(C(/C=C/c3ccc(F)cc3)CO)CC2)nc1 (single isomer, unassigned; (-))",
    "unit.of.measure": "L/kg",
    "Vd": 1.6
  }
]
